Test system: TGF-β-induced IL-11 in primary human parenchymal fibroblast cells (pFbs)
Test: Human parenchymal fibroblast cell assay, TGF-β-induced IL-11 (ELISA)
Assay type: cell-based
Details: compounds 0.1-10 μM 30 min prior to TGF-β1, 16-24 hours, 4.00* is assigned to compounds that failed to cause 50% or more inhibition at 10 µM, read-out: pIC50 IL-11 suppression (converted)
Measured Parameter: log10 IC50 (log10 of the value in nM)

                                    compound   val
 0  Fc1ccc(CNc2nccc(-c3c(-c4ccc(F)cc4)ncn3C3CCCCC3)n2)cc1  3.39
 1  Fc1ccc(-c2ncn(C3CCCCC3)c2-c2ccnc(NC3CCOCC3)n2)cc1  3.64
 2  CC(C)(C)Cn1cnc(-c2ccc(F)cc2)c1-c1ccnc(N)n1  3.93
 3  O[C@H]1C[C@H](Nc2nccc(-c3c(-c4ccc(F)cc4)ncn3C3CCCCC3)n2)C1  2.62
 4  Fc1ccc(-c2ncn(CC3CCCCC3)c2-c2ccnc(NC3COC3)n2)cc1  4.02
 5  CCn1cnc(-c2ccc(F)cc2)c1-c1ccnc(NC2CCC2)n1  2.25
 6  OCCNc1nccc(-c2c(-c3ccc(F)cc3)ncn2CC2CCCCC2)n1  3.92
 7  Fc1ccc(-c2ncn(C3CCCCC3)c2-c2ccnc(NC3CCC(F)(F)CC3)n2)cc1  4.06
 8    CCn1cnc(-c2ccc(F)cc2)c1-c1ccnc(NCCO)n1  3.27
 9  O[C@H]1C[C@@H](Nc2nccc(-c3c(-c4ccc(F)cc4)ncn3C3CCCCC3)n2)C1  3.00
10  Fc1ccc(-c2ncn(C3CCCCC3)c2-c2ccnc(NC3CCCCC3)n2)cc1  4.47
11  Nc1nccc(-c2c(-c3ccc(F)cc3)ncn2C2CCCC2)n1  2.74
12  Nc1nccc(-c2c(-c3ccc(F)cc3)ncn2CC2CCC(F)(F)CC2)n1  2.92
13  Fc1ccc(-c2ncn(C3CCCCC3)c2-c2ccnc(NC3CC3)n2)cc1  2.53
14  CCNc1nccc(-c2c(-c3ccc(F)cc3)ncn2C2CCCCC2)n1  2.47
15  Fc1ccc(-c2ncn(C3CCCCC3)c2-c2ccnc(NCc3ccccc3F)n2)cc1  3.16
16  Nc1nccc(-c2c(-c3ccc(F)cc3)ncn2C2CCC(F)(F)CC2)n1  4.30

----------
IC50 values by entry
Molecular target: MINK/MINK1 (Homo sapiens, UniProt Q8N4C8)
Construct: purchased Reaction Biology Corp
Sequence (Q8N4C8 whole entry): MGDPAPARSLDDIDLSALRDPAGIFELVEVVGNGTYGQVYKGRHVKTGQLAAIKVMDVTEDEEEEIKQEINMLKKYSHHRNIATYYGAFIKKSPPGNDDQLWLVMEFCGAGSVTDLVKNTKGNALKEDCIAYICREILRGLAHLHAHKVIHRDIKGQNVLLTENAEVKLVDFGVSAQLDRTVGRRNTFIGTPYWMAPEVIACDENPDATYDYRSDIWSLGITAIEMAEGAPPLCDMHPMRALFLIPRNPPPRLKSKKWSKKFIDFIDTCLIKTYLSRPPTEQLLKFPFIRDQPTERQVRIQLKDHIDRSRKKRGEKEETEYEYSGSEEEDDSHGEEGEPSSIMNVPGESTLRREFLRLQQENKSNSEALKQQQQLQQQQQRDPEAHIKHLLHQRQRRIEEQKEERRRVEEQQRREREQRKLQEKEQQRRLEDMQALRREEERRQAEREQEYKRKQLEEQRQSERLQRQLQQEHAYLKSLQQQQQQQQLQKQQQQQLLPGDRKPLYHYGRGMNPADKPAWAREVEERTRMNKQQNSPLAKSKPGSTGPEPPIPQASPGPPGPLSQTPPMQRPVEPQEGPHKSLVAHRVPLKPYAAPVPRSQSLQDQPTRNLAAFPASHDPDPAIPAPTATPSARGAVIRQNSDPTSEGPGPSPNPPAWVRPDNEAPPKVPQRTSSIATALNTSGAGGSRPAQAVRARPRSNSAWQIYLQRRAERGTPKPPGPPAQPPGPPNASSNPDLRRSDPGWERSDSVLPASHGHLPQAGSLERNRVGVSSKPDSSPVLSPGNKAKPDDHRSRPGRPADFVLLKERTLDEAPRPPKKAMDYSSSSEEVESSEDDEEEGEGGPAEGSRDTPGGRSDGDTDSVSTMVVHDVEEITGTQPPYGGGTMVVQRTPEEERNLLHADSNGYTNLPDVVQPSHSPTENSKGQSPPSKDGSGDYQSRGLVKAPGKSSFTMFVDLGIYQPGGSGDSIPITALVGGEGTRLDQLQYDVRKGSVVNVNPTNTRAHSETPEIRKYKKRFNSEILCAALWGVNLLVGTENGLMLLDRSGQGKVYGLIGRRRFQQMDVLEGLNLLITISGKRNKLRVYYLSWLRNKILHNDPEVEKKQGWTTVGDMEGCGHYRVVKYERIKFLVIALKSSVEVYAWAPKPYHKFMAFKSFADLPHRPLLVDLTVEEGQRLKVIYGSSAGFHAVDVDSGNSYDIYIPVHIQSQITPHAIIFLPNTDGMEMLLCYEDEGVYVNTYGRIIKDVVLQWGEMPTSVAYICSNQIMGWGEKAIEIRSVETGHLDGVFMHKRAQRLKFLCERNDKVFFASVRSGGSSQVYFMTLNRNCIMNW
Test: Kinase inhibition assay (HotSpot), MINK/MINK1
Type: biochemical
Conditions: 10 μM ATP, 10-dose IC50 mode; read-out: Compound IC50 (M) MINK/MINK1
Measured Parameter: IC50 (M)

In [3]: df
Out[3]:
                                   compound  measured_parameter  value_unit       val
0  Nc1nccc(-c2c(-c3ccc(F)cc3)ncn2C2CCCC2)n1                IC50           M  2.17e-07
1  OCCNc1nccc(-c2c(-c3ccc(F)cc3)ncn2CC2CCCCC2)n1                IC50           M  1.97e-07
2  Fc1ccc(-c2ncn(C3CCCCC3)c2-c2ccnc(NC3CC(F)(F)C3)n2)cc1                IC50           M  2.16e-08
3  Fc1ccc(-c2ncn(C3CCCCC3)c2-c2ccnc(NCc3ccccc3F)n2)cc1                IC50           M  4.21e-08
4  Fc1ccc(-c2ncn(CC3CCCCC3)c2-c2ccnc(NC3COC3)n2)cc1                IC50           M  9.44e-08
5  O[C@H]1C[C@H](Nc2nccc(-c3c(-c4ccc(F)cc4)ncn3C3CCCCC3)n2)C1                IC50           M  1.73e-08
6  Fc1ccc(-c2ncn(C3CCCCC3)c2-c2ccnc(NC3CCC(F)(F)CC3)n2)cc1                IC50           M   1.1e-07
7  Nc1nccc(-c2c(-c3ccc(F)cc3)ncn2C2CCC(F)(F)CC2)n1                IC50           M  1.15e-06
8  Fc1ccc(-c2ncn(C3CCCCC3)c2-c2ccnc(NC3CCOCC3)n2)cc1                IC50           M   1.7e-07

----------
Experiment: Mouse pharmacokinetics, IV and oral administration
Assay type: in vivo
Conditions: male, C57BL/6, mouse, plasma, po, 8.96 mg/kg, male C57BL/6 mice, oral 8.96 mg/kg, 1.0 h; read-out: Plasma Concentration, Individual
Protocol: PF670462 (2HCl.0.4 mol. eq. isopropanol) and ZH3-138 (unionised) were administered to male C57BL/6 mice by IV (3 mg/kg) or orally (10 mg/kg). […] Plasma samples were quantified against calibration standards prepared by spiking blank mouse plasma (50 μL) with solution standards (10 μL) obtained by diluting a stock solution of test compound (1 mg/mL in DMSO) with 50% acetonitrile in water. […]
Measured Parameter: concentration at 1 h (µM)

>>> print(df.to_string())
                                   compound    measured_parameter  value_unit   val
0  Nc1nccc(-c2c(-c3ccc(F)cc3)ncn2C2CCC(F)(F)CC2)n1  concentration at 1 h          µM  13.9

----------
Assay: Mouse pharmacokinetics, IV and oral administration
Assay type: in vivo
Settings: mouse; male C57BL/6 mice, plasma; read-out: apparent half-life (converted)
Experimental: PF670462 (2HCl.0.4 mol. eq. isopropanol) and ZH3-138 (unionised) were administered to male C57BL/6 mice by IV (3 mg/kg) or orally (10 mg/kg). […] Plasma samples were quantified against calibration standards prepared by spiking blank mouse plasma (50 μL) with solution standards (10 μL) obtained by diluting a stock solution of test compound (1 mg/mL in DMSO) with 50% acetonitrile in water. […]
Measured Parameter: half-life

>>> print(df.to_string())
                                   compound  measured_parameter       val
0  Nc1nccc(-c2c(-c3ccc(F)cc3)ncn2C2CCC(F)(F)CC2)n1 [ZH3-138]           half-life  ~180 min

----------
Test: Mouse pharmacokinetics, IV and oral administration
Format: in vivo
Details: male, C57BL/6, mouse, plasma, iv, 2.69 mg/kg, male C57BL/6 mice, IV 2.69 mg/kg, 7.5 h; read-out: Plasma Concentration, Mean
Measured Parameter: concentration at 7.5 h (nM)

>>> print(df.to_string())
                                   compound   val
0  Nc1nccc(-c2c(-c3ccc(F)cc3)ncn2C2CCC(F)(F)CC2)n1  1720

----------
Experiment: Mouse pharmacokinetics, IV and oral administration
Assay type: in vivo
Details: male, C57BL/6, mouse, plasma, iv, 2.69 mg/kg, male C57BL/6 mice, IV 2.69 mg/kg, 0.033 h; read-out: Plasma Concentration, Mean
Measured Parameter: concentration at 0.033 h

                                   compound        measured_parameter      val
0  Nc1nccc(-c2c(-c3ccc(F)cc3)ncn2C2CCC(F)(F)CC2)n1  concentration at 0.033 h  7.84 µM

----------
Assay: Mouse pharmacokinetics, IV and oral administration
Assay type: in vivo
Details: male, C57BL/6, mouse, plasma, iv, 2.69 mg/kg, male C57BL/6 mice, IV 2.69 mg/kg, 0.017 h; read-out: Plasma Concentration, Mean
Measured Parameter: concentration at 0.017 h (µM)

>>> df
                                   compound        measured_parameter  value_unit   val
0  Nc1nccc(-c2c(-c3ccc(F)cc3)ncn2C2CCC(F)(F)CC2)n1  concentration at 0.017 h          µM  10.8

----------
Molecular target: ERBB4/HER4 (Homo sapiens)
Construct: purchased Reaction Biology Corp
Sequence (Q15303 26-1308): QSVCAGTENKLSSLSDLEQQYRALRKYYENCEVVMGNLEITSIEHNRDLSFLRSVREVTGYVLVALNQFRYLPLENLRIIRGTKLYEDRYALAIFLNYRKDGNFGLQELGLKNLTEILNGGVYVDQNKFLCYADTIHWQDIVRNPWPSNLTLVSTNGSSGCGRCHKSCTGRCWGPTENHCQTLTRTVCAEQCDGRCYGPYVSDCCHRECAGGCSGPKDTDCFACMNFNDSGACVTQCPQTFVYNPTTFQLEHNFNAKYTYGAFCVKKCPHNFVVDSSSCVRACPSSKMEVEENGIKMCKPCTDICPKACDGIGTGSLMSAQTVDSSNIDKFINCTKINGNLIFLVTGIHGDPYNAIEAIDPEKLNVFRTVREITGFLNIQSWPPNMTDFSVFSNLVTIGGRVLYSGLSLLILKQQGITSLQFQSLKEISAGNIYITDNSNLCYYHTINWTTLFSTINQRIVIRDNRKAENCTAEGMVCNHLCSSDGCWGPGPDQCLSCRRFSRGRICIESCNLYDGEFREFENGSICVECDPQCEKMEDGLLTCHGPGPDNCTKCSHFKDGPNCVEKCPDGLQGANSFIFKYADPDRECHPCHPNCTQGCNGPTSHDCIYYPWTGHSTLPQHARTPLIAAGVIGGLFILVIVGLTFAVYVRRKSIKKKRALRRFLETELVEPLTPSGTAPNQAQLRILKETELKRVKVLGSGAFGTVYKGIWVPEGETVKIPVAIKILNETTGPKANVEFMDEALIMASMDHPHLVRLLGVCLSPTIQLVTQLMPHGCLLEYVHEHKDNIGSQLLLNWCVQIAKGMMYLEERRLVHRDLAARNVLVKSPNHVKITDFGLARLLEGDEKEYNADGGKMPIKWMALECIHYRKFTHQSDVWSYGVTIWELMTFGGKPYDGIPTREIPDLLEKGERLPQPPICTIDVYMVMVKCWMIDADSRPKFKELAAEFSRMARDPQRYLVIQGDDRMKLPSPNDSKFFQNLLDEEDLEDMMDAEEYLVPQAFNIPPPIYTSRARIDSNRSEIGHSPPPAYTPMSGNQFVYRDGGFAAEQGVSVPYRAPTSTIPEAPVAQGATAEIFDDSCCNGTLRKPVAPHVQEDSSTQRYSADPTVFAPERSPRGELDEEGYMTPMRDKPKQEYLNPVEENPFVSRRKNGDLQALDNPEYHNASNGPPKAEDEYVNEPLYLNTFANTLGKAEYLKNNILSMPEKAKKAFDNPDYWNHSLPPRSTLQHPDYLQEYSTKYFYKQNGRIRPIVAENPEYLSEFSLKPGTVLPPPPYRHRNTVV
Assay: Kinase inhibition assay (HotSpot), ERBB4/HER4
Format: biochemical
Conditions: 10 μM ATP, 10-dose IC50 mode; read-out: Compound IC50 (M) ERBB4/HER4
Measured Parameter: IC50 (M)

                                    compound              tested_target  measured_parameter  comparative_sign       val
 0    CCn1cnc(-c2ccc(F)cc2)c1-c1ccnc(NCCO)n1  ERBB4/HER4 (Homo sapiens)                IC50                 =  9.52e-06
 1  O[C@H]1C[C@H](Nc2nccc(-c3c(-c4ccc(F)cc4)ncn3C3CCCCC3)n2)C1  ERBB4/HER4 (Homo sapiens)                IC50                 =  4.41e-06
 2  Nc1nccc(-c2c(-c3ccc(F)cc3)ncn2C2CCCC2)n1  ERBB4/HER4 (Homo sapiens)                IC50                 =  1.39e-06
 3  CCNc1nccc(-c2c(-c3ccc(F)cc3)ncn2C2CCCCC2)n1  ERBB4/HER4 (Homo sapiens)                IC50                 =   7.5e-07
 4  Nc1nccc(-c2c(-c3ccc(F)cc3)ncn2C2CCC(F)(F)CC2)n1  ERBB4/HER4 (Homo sapiens)                IC50                 =  9.98e-06
 5  CC(C)(C)Cn1cnc(-c2ccc(F)cc2)c1-c1ccnc(N)n1  ERBB4/HER4 (Homo sapiens)                IC50                 =  8.35e-06
 6  OCCNc1nccc(-c2c(-c3ccc(F)cc3)ncn2CC2CCCCC2)n1  ERBB4/HER4 (Homo sapiens)                IC50                 =  5.13e-07
 7  Fc1ccc(-c2ncn(C3CCCCC3)c2-c2ccnc(NC3CC3)n2)cc1  ERBB4/HER4 (Homo sapiens)                IC50                 =  1.48e-06
 8  Fc1ccc(-c2ncn(C3CCCCC3)c2-c2ccnc(NCc3ccccc3F)n2)cc1  ERBB4/HER4 (Homo sapiens)                IC50                 =  3.66e-06
 9  Fc1ccc(-c2ncn(C3CCCCC3)c2-c2ccnc(NC3CCCC3)n2)cc1  ERBB4/HER4 (Homo sapiens)                IC50                 =  9.01e-06
10  O[C@H]1C[C@@H](Nc2nccc(-c3c(-c4ccc(F)cc4)ncn3C3CCCCC3)n2)C1  ERBB4/HER4 (Homo sapiens)                IC50                 >     1e-05
11  Fc1ccc(-c2ncn(CC3CCCCC3)c2-c2ccnc(NC3COC3)n2)cc1  ERBB4/HER4 (Homo sapiens)                IC50                 =     3e-06
12  CCn1cnc(-c2ccc(F)cc2)c1-c1ccnc(NC2CCC2)n1  ERBB4/HER4 (Homo sapiens)                IC50                 =  4.42e-06
13  Nc1nccc(-c2c(-c3ccc(F)cc3)ncn2CC2CCC(F)(F)CC2)n1  ERBB4/HER4 (Homo sapiens)                IC50                 =  1.42e-06
14  Fc1ccc(-c2ncn(C3CCCCC3)c2-c2ccnc(NC3CCCCC3)n2)cc1  ERBB4/HER4 (Homo sapiens)                IC50                 >     1e-05
